# Tested on: MCF7 breast
# procedure.summary: NCI-60 one-dose screen, 48 h (100 = growth as untreated, 0 = no growth, -100 = all killed)
# condition.context: 10 µM unless noted
About 83,000 compounds went through this panel and 20% of them were active in at least one assay; those are over-represented in the sample as a whole.
Form field: growth (one value per entry).
measurement.type: growth (%)

> print(dat)
                                    compound  measurement.type  observed.measurement
 1   Nc1nc(N(Cc2ccccc2)c2ccccc2)c2cn[nH]c2n1            growth                  43.8
 2  COC(=O)c1c2c(c(C)[n+]([O-])c1C)C(=O)C(NCc1ccccc1)=CC2=O            growth                 -33.9
 3  COc1ccc(/C=C/C(c2cc(OC)c(OC)c(OC)c2)n2cncn2)cc1O (configuration not stated)            growth                  21.2
 4  CCN1C(=O)N(CC)C2C1NN=c1s/c(=C\c3ccc(OC)cc3)c(=O)n12 (configuration not stated)            growth                  14.4
 5  c1csc(-c2cn3nc(-c4c[nH]c5ccccc45)sc3n2)c1            growth                    13
 6  COCCn1cc(-c2nc(-c3cc4cccnc4n3C)cs2)c2ccccc21            growth                   6.6
 7  CN1CCN(Cc2ccc(NC(=O)c3cncc(C#Cc4cnc(N)cc4C#N)c3)cc2C(F)(F)F)CC1            growth                  18.7
 8  COc1cc2ncnc(Nc3ccc(F)c(Cl)c3)c2cc1OCC(=O)N1CCOCC1            growth                  83.9
 9  COc1ccc(-c2cc(C(=O)N3N=C(c4ccc(N)cc4)CC3c3ccc(Cl)cc3)c3ccccc3n2)cc1 (configuration not stated)            growth                  13.9
10  COCCn1cc(-c2csc(-c3c[nH]c4ccc(F)cc34)n2)c2cccnc21            growth                  11.8
11  CN(C)CCCNC(=O)c1cncnc1Nc1ccc2c(ccn2Cc2cccc(F)c2)c1            growth                  71.4
12  C=CN(C(=O)N1CCN(c2cc3c(cc2F)c(=O)c(C(=O)O)cn3C2CC2)CC1)c1nc(-c2ccccc2)cs1            growth                  94.8
13  COc1cc2c(cc1OCCCN1CCN(C(=S)SCCC(C#N)(c3ccccc3)c3ccccc3)CC1)N=C[C@@H]1CCCN1C2=O            growth                 -86.1
14   NCCCNc1nc2ccccc2c2c(=O)c3cc(Cl)ccc3sc12            growth                 -75.4
15  CCN(CC)c1ccc(-c2cc(-c3cc(OC)c(OC)c(OC)c3)nc(N3CCC(O)CC3)c2C#N)cc1            growth                 -33.3
16  COC(=O)/C=C1/SC(=NCc2ccccc2)N(CCc2c[nH]c3ccccc23)C1=O            growth                  48.4
17  Cc1nc([P+](c2ccccc2)(c2ccccc2)c2ccccc2)c(N2CCCCC2)o1            growth                  10.9
18  COc1cc2c3c(c4c5ccccc5[nH]c4c2c(OC)c1OC)C(=O)N(CCN1CCCCC1)C3=O            growth                 -56.3
19     O=c1oc2c(cnc3ccccc32)cc1-c1cccc(Cl)c1            growth                  99.2
20     O=C(/C=C/c1ccccc1)N(C1CCCCC1)C1CCCCC1            growth                  88.4
21          Nc1cc(Br)cc2c1[nH]c(=O)c1ccccc12            growth                  53.2
22  CCCCCCCCn1ccc2cc(NC(=O)CN=[N+]=[N-])ccc21            growth                  91.1
23                          O=CCCCOCc1ccccc1            growth                  91.7
24  O=c1cc(-c2ccccc2)nc(SCc2nc3cc(Cl)c(Cl)cc3[nH]2)[nH]1            growth                  92.5
25  COc1cc(/C=C/c2cn[nH]c2-c2ccc(C)cc2)cc(OC)c1OC            growth                  13.1
26  COC(=O)c1c2c(c[n+]([O-])c1C)C(=O)C=C(NCc1ccccc1)C2=O            growth                 -57.3
27  CCCCCc1ccc(S(=O)(=O)Nc2cc(-c3csc(NC(C)=O)n3)ccc2N2CCN(C)CC2)cc1            growth                  9.36
